Target: T1, PlzA WT (Borrelia burgdorferi B31, UniProt O51675 1-261)
T1 sequence: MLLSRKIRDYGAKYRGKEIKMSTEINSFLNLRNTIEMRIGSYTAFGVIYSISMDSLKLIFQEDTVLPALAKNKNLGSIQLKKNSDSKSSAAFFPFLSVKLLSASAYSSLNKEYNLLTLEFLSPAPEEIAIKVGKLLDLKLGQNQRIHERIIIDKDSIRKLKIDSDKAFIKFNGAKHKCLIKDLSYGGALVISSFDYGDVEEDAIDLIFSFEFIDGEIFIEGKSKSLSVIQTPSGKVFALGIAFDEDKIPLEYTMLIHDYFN
Assay: EMSA
readout_name: pKd
The read-out pKd is expressed as -log10 of concentration in moles per litre.

Ask | What value of pKd has been recorded for this entry: glpFKD(-7/+35) (dsDNA) DNA 1: ATTAAATATAATTTTAATAAGGCTTTTATTAGAAAAATTAAT DNA 2: ATTAATTTTTCTAATAAAAGCCTTATTAAAATTATATTTAAT
Reply | 5.90
